# Test system: CCRF-CEM
# Test details: MTS cytotoxic assay, CCRF-CEM
# Format: cell-based
# Measurement setup: Homo sapiens, 72 h
# Protocol: If not indicated otherwise, the cell lines were purchased from the American Type Culture Collection (ATCC). […] K562 is the erythroid-myeloid precursor cell line derived from chronic myeloid leukemia carrying the BCR-ABL hybrid gene. […] To evaluate compound cytotoxicity, cells were seeded in 384-well microtiter plates in a volume of 30 mL. […] After another 1–4 h of incubation, the absorbance at 490 nm was measured using an EnVision Multilabel Plate Reader (PerkinElmer).
Readout name: IC50

## Input Annotate the molecule CO[C@H]1C[C@H](O[C@H]2CC[C@]3(C=O)[C@H]4CC[C@]5(C)[C@@H](C6=CC(=O)OC6)CC[C@]5(O)[C@@H]4CC[C@]3(O)C2)O[C@H](C)[C@H]1O with its measured IC50.
## Output 14 nM

## Input In one line, give reported IC50 of the entry C[C@]12CC[C@H]3[C@@H](CCC4=C[C@@H](O[C@@H]5OC[C@@H](O)[C@H](O)[C@H]5O)CC[C@@]43C=O)[C@@]1(O)CC[C@@H]2C1=CC(=O)OC1 [deHyr, deglucohyrcanoside] .
## Output 110 nM

## Input Consider the molecule C[C@]12CC[C@H]3[C@@H](CCC4=C[C@@H](O[C@@H]5OC[C@@H](O[C@@H]6O[C@H](CO)[C@@H](O)[C@H](O)[C@H]6O)[C@H](O)[C@H]5O)CC[C@@]43C=O)[C@@]1(O)CC[C@@H]2C1=CC(=O)OC1 and give its recorded IC50.
## Output 660 nM

## Input Supply measured IC50 of C[C@H]1O[C@@H](O[C@H]2[C@@H](O)C[C@H](O[C@H]3[C@@H](O)C[C@H](O[C@H]4CC[C@@]5(C)[C@H](CC[C@@H]6[C@@H]5CC[C@]5(C)[C@@H](C7=CC(=O)OC7)CC[C@]65O)C4)O[C@@H]3C)O[C@@H]2C)C[C@H](O)[C@@H]1O in your reply.
## Output 20 nM

###

So I've got a bunch of molecules here, and I need their pIC50 values.
# System: 5637
# Test details: MTS cytotoxic assay, 5637
# Type: cell-based
# Measurement setup: Homo sapiens, 72 h
Kindly note that pIC50 refers to -log10 of the concentration in mol/L and answer with the value alone.

## Input Specify pIC50 for C[C@H]1O[C@@H](O[C@H]2[C@@H](O)C[C@H](O[C@H]3[C@@H](O)C[C@H](O[C@H]4CC[C@@]5(C)[C@H](CC[C@@H]6[C@@H]5CC[C@]5(C)[C@@H](C7=CC(=O)OC7)CC[C@]65O)C4)O[C@@H]3C)O[C@@H]2C)C[C@H](O)[C@@H]1O [Dg, digitoxin] and stop.
## Output 7.24

## Input Fill in pIC50 for record CO[C@H]1C[C@H](O[C@H]2CC[C@]3(C=O)[C@H]4CC[C@]5(C)[C@@H](C6=CC(=O)OC6)CC[C@]5(O)[C@@H]4CC[C@]3(O)C2)O[C@H](C)[C@H]1O [Cy, cymarin]
## Output 7.05

## Input Identify pIC50 associated with the molecule C[C@]12CC[C@H]3[C@@H](CCC4=C[C@@H](O[C@@H]5OC[C@@H](O[C@@H]6O[C@H](CO)[C@@H](O)[C@H](O)[C@H]6O)[C@H](O)[C@H]5O)CC[C@@]43C=O)[C@@]1(O)CC[C@@H]2C1=CC(=O)OC1 [Hyr]
## Output 5.82

## Input Please give measured pIC50 of the following entry: C[C@]12CC[C@H]3[C@@H](CCC4=C[C@@H](O[C@@H]5OC[C@@H](O)[C@H](O)[C@H]5O)CC[C@@]43C=O)[C@@]1(O)CC[C@@H]2C1=CC(=O)OC1 [deHyr, deglucohyrcanoside]
## Output 6.40
